- MEASURED_ON: IRAK4 (Homo sapiens (Human))
- Sequence (Q9NWZ3 whole entry): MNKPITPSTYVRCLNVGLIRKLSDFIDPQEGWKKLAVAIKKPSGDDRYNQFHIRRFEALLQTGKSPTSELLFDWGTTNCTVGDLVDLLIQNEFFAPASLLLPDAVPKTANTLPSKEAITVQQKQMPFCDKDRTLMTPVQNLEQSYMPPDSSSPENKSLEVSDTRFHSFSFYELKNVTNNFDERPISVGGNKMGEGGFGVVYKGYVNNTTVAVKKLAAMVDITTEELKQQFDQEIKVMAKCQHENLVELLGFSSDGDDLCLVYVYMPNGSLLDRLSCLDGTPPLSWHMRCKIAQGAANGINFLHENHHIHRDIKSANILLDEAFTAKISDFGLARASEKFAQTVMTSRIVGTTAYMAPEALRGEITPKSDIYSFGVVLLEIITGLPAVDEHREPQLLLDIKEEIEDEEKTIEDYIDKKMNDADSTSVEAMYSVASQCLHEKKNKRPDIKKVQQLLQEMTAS
- ASSAY_REMARKS: IRAK4 Kinase Assay
- Type: biochemical
- SETUP_CONDITIONS: IMAP fluorescence polarization, 0.5 nM GST tagged IRAK4, 100 μM ATP, 30 minutes at 25° C.; read-out: IRAK4 IC50
Structures can show the parent of a compound that is named as a salt.
MEASURED_METRIC: IC50 (nM)

IC50 for O=C(Nc1cscc1Cl)c1cnn2ccc(N3CCCNCC3)nc12 [Example 167, trifluoroacetate] is 480

For reference, reported IC50 for Cn1cc(NC(=O)c2cnn3ccc(N[C@@H]4CCCC[C@@H]4N)nc23)c(CCF)n1 [Example 289, trifluoroacetate] stands at 3

Just so you know, measured IC50 for Cn1cc(NC(=O)c2cnn3ccc(N4CCCNC5(CC5)C4)nc23)c(C(F)(F)F)n1 [Example 227] came out at 451

The compound O=C(Nc1cn(CC(F)F)nc1C(F)(F)F)c1cnn2ccc(N[C@@H]3CCCC[C@@H]3O)nc12 [Example 63] showed IC50 equal to 38

Reported IC50 for O=C(Nc1cn(C(F)F)nc1C(F)(F)F)c1cnn2ccc(N3CCNCC3)nc12 [Example 300, trifluoroacetate] was 55

Form: compound = CN1CCN(c2ccn3ncc(C(=O)Nc4cn(C)nc4C(F)(F)F)c3n2)CC1 [Example 34] ; IC50 = 269

I. Cn1cc(NC(=O)c2cnn3ccc(N4CCC(F)(F)[C@@H](N)C4)nc23)c(C(F)F)n1 (single isomer, unassigned) [Example 189]
II. O=C(Nc1ccsc1Br)c1cnn2ccc(N3CCCNCC3)nc12 [Example 127, trifluoroacetate]
III. Cn1cc(NC(=O)c2cnn3ccc(N4C[C@H]5CC[C@@H]4CN5)nc23)c(Br)n1 (single isomer, unassigned) [Example 165, trifluoroacetate]
IV. Cn1cc(NC(=O)c2cnn3ccc(N4CCN5CCC4C5)nc23)c(C(F)(F)F)n1 (stereo not drawn) [Example 43, trifluoroacetate]
V. O=C(Nc1cscc1Cl)c1cnn2ccc(N3C[C@@H]4CC[C@H]3CN4)nc12 (single isomer, unassigned) [Example 169, trifluoroacetate]
[Q] Task field, ranking: reported IC50, descending order. Output the labels ranked as instructed.
[A] II, V, IV, III, I
(II: 419 nM, V: 150 nM, IV: 45 nM, III: 19 nM, I: 2 nM)

1. Cn1cc(NC(=O)c2cnn3ccc(NC4CCCNCC4)nc23)c(C(F)(F)F)n1 (stereo not drawn) [Example 17, hydrochloride]
2. Cn1cc(NC(=O)c2cnn3ccc(N4C[C@H]5CC[C@@H]4CN5)nc23)c(C#N)n1 (single isomer, unassigned) [Example 157, trifluoroacetate]
[Q] Looking at 1 and 2 , which one comes out lower in IC50 terms? Refer to your chosen item by its label in the answer.
[A] 1
(1: 14 nM, 2: 60 nM)
